B1: tRNA (parent)
chain: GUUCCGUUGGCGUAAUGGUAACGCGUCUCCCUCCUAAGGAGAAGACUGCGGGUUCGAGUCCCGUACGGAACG

variants of: B1; assay: yeast fitness relative to wild type (ratio to wild type); higher = fitter; tRNA-Arg(CCU), competitive growth, 37 C, YPD
Fewer inactive variants are shown than the library holds.

{"mutation-label": "C4A U16C G17A G56C", "limit-sign": "≤", "yeast fitness": 0.5}
{"mutation-label": "C5G C49A G63A", "limit-sign": "≤", "yeast fitness": 0.5}
{"mutation-label": "A37G A40G C49U", "limit-sign": "=", "yeast fitness": 0.501}
{"mutation-label": "C11U A42G C60A", "limit-sign": "≤", "yeast fitness": 0.5}
{"mutation-label": "A21C C46G C49G", "limit-sign": "=", "yeast fitness": 0.655}
{"mutation-label": "U35A U54C C61G", "limit-sign": "=", "yeast fitness": 0.645}
{"mutation-label": "C27G A37C G39A A45C A65U", "limit-sign": "≤", "yeast fitness": 0.5}
{"mutation-label": "G9C C22G C33A", "limit-sign": "=", "yeast fitness": 0.598}
{"mutation-label": "C4G A15C C66U", "limit-sign": "=", "yeast fitness": 0.539}
{"mutation-label": "C4U C30A G68A", "limit-sign": "=", "yeast fitness": 0.786}
{"mutation-label": "C4A A14G C30G A45G", "limit-sign": "=", "yeast fitness": 0.758}
{"mutation-label": "U8C A15U U16A U26A G58A", "limit-sign": "≤", "yeast fitness": 0.5}
{"mutation-label": "G9C G12A C29A G38A", "limit-sign": "≤", "yeast fitness": 0.5}
{"mutation-label": "A36C C61U", "limit-sign": "=", "yeast fitness": 0.581}
{"mutation-label": "C30A A43C", "limit-sign": "=", "yeast fitness": 0.884}
{"mutation-label": "A20C C34G C66U", "limit-sign": "≤", "yeast fitness": 0.5}
{"mutation-label": "U3G C4A G12A C29A C30G", "limit-sign": "=", "yeast fitness": 0.556}
{"mutation-label": "U13A G18C A36G G41C C55U", "limit-sign": "=", "yeast fitness": 0.55}
{"mutation-label": "C4U U13A", "limit-sign": "=", "yeast fitness": 1.1}
{"mutation-label": "U26G C27U", "limit-sign": "=", "yeast fitness": 0.801}
{"mutation-label": "G58A A65C G67A", "limit-sign": "=", "yeast fitness": 0.643}
{"mutation-label": "C5A U53G C60A", "limit-sign": "≤", "yeast fitness": 0.5}
{"mutation-label": "G10A C31A G41A A45U G58C", "limit-sign": "≤", "yeast fitness": 0.5}
{"mutation-label": "U8C C22G C27U C49U U64C", "limit-sign": "≤", "yeast fitness": 0.5}
{"mutation-label": "U3C A21G C29G", "limit-sign": "≤", "yeast fitness": 0.5}
{"mutation-label": "C29U C61U", "limit-sign": "=", "yeast fitness": 0.706}
{"mutation-label": "U7A C27U A69C", "limit-sign": "=", "yeast fitness": 0.649}
{"mutation-label": "G6A A15C A20G", "limit-sign": "≤", "yeast fitness": 0.5}
{"mutation-label": "U3G A15U C61A", "limit-sign": "≤", "yeast fitness": 0.5}
{"mutation-label": "G52C C66A", "limit-sign": "=", "yeast fitness": 0.538}
{"mutation-label": "C5U G17A C66A", "limit-sign": "=", "yeast fitness": 0.522}
{"mutation-label": "U13C A37U", "limit-sign": "=", "yeast fitness": 0.543}
{"mutation-label": "U2G C27A C34G A65G", "limit-sign": "≤", "yeast fitness": 0.5}
{"mutation-label": "U28A A37C", "limit-sign": "=", "yeast fitness": 0.657}
{"mutation-label": "A14G G41C C55A", "limit-sign": "≤", "yeast fitness": 0.5}
{"mutation-label": "C5A C11A C34A A40U", "limit-sign": "=", "yeast fitness": 0.696}
{"mutation-label": "C33U A65C G68C", "limit-sign": "=", "yeast fitness": 0.504}
{"mutation-label": "C5G C11A A20G U28C C33U A70C", "limit-sign": "≤", "yeast fitness": 0.5}
{"mutation-label": "U8A G10A U26G G58A", "limit-sign": "≤", "yeast fitness": 0.5}
{"mutation-label": "G10C C30A C66U", "limit-sign": "≤", "yeast fitness": 0.5}
{"mutation-label": "C5A C24A", "limit-sign": "=", "yeast fitness": 0.727}
{"mutation-label": "G12C G41A C60G A65G", "limit-sign": "=", "yeast fitness": 0.519}
{"mutation-label": "A37U C49U U64C", "limit-sign": "=", "yeast fitness": 0.545}
{"mutation-label": "G10C G12C G39A C61U A69C", "limit-sign": "=", "yeast fitness": 0.528}
{"mutation-label": "U7C G41A A42C G50C A69U", "limit-sign": "=", "yeast fitness": 0.556}
{"mutation-label": "A45C A70C", "limit-sign": "=", "yeast fitness": 1.05}
